# Bedstraw plant response rating values compiled below
# Test system: bedstraw
# assay_summary: Test B pre/postemergence bedstraw
# Type: in vivo, Galium aparine
# conditions_used: Rate 500 g/ha, Postemergence; scale 0 to 10, 0 no effect, 10 complete control
metric: Bedstraw plant response rating

1. COc1cccc(C)c1-n1c(=O)on(C(=O)N(c2ccc(F)cc2F)C(C)C)c1=O 8
2. C=CCn1c(=O)on(C(=O)N(c2ccc(Cl)cc2)C(C)C)c1=O 3
3. C=CCn1c(=O)on(C(=O)N(CC)C2CCCCC2)c1=O 0
4. Cc1ccccc1-n1c(=O)on(C(=O)N(c2ccc(OC(F)(F)F)cc2)C(C)C)c1=O 0
5. CC(C)N(C(=O)n1oc(=O)n(Cc2ccccc2Cl)c1=O)c1ccc(F)cc1 6
6. Cc1ccccc1Cn1c(=O)on(C(=O)N(c2ccc(F)cc2F)C(C)C)c1=O 8
7. COc1cc(C)cc(C)c1-n1c(=O)on(C(=O)N(c2ccc(F)cc2F)C(C)C)c1=O 5

---

# System: soybean
# assay_summary: Test B pre/postemergence soybean
# Type: in vivo, Glycine max
# conditions_used: Preemergence, Rate 500 g/ha; scale 0 (no effect) to 10 (complete control)
metric: Soybean plant response rating

1. Cc1ccccc1-n1c(=O)on(C(=O)N(c2ccc([N+](=O)[O-])cc2)C(C)C)c1=O 0
2. CCc1cccc(C)c1-n1c(=O)on(C(=O)N(c2ccc(F)cc2)C(C)C)c1=O 0
3. CCCn1c(=O)on(C(=O)N(c2ccc(F)cc2)C(C)C)c1=O 7
4. Cc1ccccc1Cn1c(=O)on(C(=O)N(c2ccc(F)cc2F)C(C)C)c1=O 4

---

# Test system: surinam grass
# assay_summary: Test B pre/postemergence surinam grass
# Format: in vivo, Brachiaria decumbens
# conditions_used: Preemergence, Rate 250 g/ha; scale 0 to 10 (0 no effect, 10 complete control)
# Plant response rating, B. signalgrass values compiled below

compound	target	Plant response rating, B. signalgrass
COCCn1c(=O)on(C(=O)N(c2ccc(F)cc2)C(C)C)c1=O	surinam grass	8
CC[C@H](C)n1c(=O)on(C(=O)N(c2ccc(Cl)cc2)C(C)C)c1=O	surinam grass	5
C#CC(C)n1c(=O)on(C(=O)N(c2ccc(F)cc2F)C(C)C)c1=O (racemic)	surinam grass	9
CC(C)N(C(=O)n1oc(=O)n(C(C)C)c1=O)c1ccncc1	surinam grass	0

---

# System: blackgrass
# assay_summary: Test B pre/postemergence blackgrass
# Assay type: in vivo, Alopecurus myosuroides
# conditions_used: Preemergence, Rate 250 g/ha; scale 0 to 10 (0 no effect, 10 complete control)
Checkbox rule: Plant response rating, Blackgrass lower than 5 = Met; Plant response rating, Blackgrass not lower than 5 = Not met.

molecule	group_label
C=C(Cc1ccccc1)Cn1c(=O)on(C(=O)N(c2ccccc2)C(C)C)c1=O	Met
CC(C)N(C(=O)n1oc(=O)n(CC2CCCCO2)c1=O)c1ccc(Cl)cc1 (stereo not drawn)	Not met
COC(=O)C(CCO)n1c(=O)on(C(=O)N(c2ccc(F)cc2)C(C)C)c1=O (stereo not drawn)	Met
COCCn1c(=O)on(C(=O)N(c2ccc(F)cc2)C(C)C)c1=O	Not met
COCCn1c(=O)on(C(=O)N(c2ccc(F)cc2F)C(C)C)c1=O	Not met

---

# Blackgrass plant response rating values compiled below
# System: blackgrass
# assay_summary: Test B pre/postemergence blackgrass
# Type: in vivo, Alopecurus myosuroides
# conditions_used: Postemergence, Rate 62 g/ha; scale 0 to 10, 0 is no effect, 10 is complete control

compound	Blackgrass plant response rating
Cc1ccccc1-n1c(=O)on(C(=O)N(c2ccc([N+](=O)[O-])cc2)C(C)C)c1=O [Compound 44]	0
CCCn1c(=O)on(C(=O)N(c2ccc(F)cc2)C(C)C)c1=O [Compound 91]	8
COc1cccc(C)c1-n1c(=O)on(C(=O)N(c2ccc(F)cc2F)C(C)C)c1=O [Compound 74]	0
Cc1cccc(C)c1-n1c(=O)on(C(=O)N(c2ccc(F)cc2)C(C)C)c1=O [Compound 18]	0
Cc1ccccc1-n1c(=O)on(C(=O)N(c2cc(F)cc(F)c2)C(C)C)c1=O [Compound 67]	0
